- Target Or Test System: SARS-CoV-2 3CLpro (Severe acute respiratory syndrome coronavirus 2, UniProt P0DTD1)
- Experimental Details: biochemical
- Assay type: biochemical
- Design: unit not given here
- Test Conditions: sheet LOPAC_screen_w_protease; primary screen of LOPAC1280 at 5 µM with protease; replicate 2
Parameter: Replicate_2
In your answer, state the number alone without any accompanying words.

Completed entries (count: 2):
| Compound | Replicate_2 |
| --- | --- |
| Nc1nccc2c1ncn2[C@@H]1O[C@H](CO)[C@@H](O)[C@H]1O | 1.683 |
| COC(=O)[C@@H](N)Cc1ccc(O)c(O)c1.Cl | 2.946 |

Input line: Fill blank: measured Replicate_2 of the compound Ic1ccccc1CNC1C2CCN(CC2)C1C(c1ccccc1)c1ccccc1.O=C(O)C(=O)O [L-703,606 oxalate] is ____.
Output line: 3.181

* * *

Reported inhibition at 5 µM is given for each of the following compounds.
- Target Or Test System: SARS-CoV-2 3CLpro (Severe acute respiratory syndrome coronavirus 2, UniProt P0DTD1)
- Experimental Details: biochemical
- Assay type: biochemical
- Test Conditions: 4 h, sheet LOPAC_screen_w_protease; LOPAC1280 primary screen with protease, 5 µM compound; replicate 1; read-out: Replicate_1
Counter-ions that a name gives are not always drawn.
Give the number; % is assumed, so skip it.

Consider the worked cases shown below.
| Compound | Target Or Test System | Parameter | Units Text | Value |
| --- | --- | --- | --- | --- |
| CSc1ccc2c(c1)C(N1CCN(C)CC1)Cc1ccccc1S2 (stereo not shown) [Methiothepin mesylate] | SARS-CoV-2 3CLpro (Severe acute respiratory syndrome coronavirus 2, UniProt P0DTD1) | inhibition at 5 µM | % | 3.76 |
| Cn1cnc2c(NCc3ccccc3)nc(NCCO)nc21 | SARS-CoV-2 3CLpro (Severe acute respiratory syndrome coronavirus 2, UniProt P0DTD1) | inhibition at 5 µM | % | 3.02 |
| O=C1N(c2ccccc2)c2ccccc2C1(Cc1ccncc1)Cc1ccncc1 | SARS-CoV-2 3CLpro (Severe acute respiratory syndrome coronavirus 2, UniProt P0DTD1) | inhibition at 5 µM | % | 4.31 |

Input line: Give the reported inhibition at 5 µM for COc1ccc(Cc2nccc3cc(OC)c(OC)cc23)cc1OC [Papaverine hydrochloride] (system: SARS-CoV-2 3CLpro (Severe acute respiratory syndrome coronavirus 2, UniProt P0DTD1)).
Output line: 5.9

* * *

- Target Or Test System: SARS-CoV-2 3CLpro (Severe acute respiratory syndrome coronavirus 2)
- Experimental Details: biochemical
- Assay type: biochemical
- Parameters: unit not given here
- Test Conditions: sheet LOPAC_screen_w_protease; LOPAC1280 at 5 µM; mean of two replicates
Decide by mean: equal to or exceeding 1 means 1.0, less means 0.0.

Observe how each entry below is paired with its result.
| Molecule | Label Value |
| --- | --- |
| N[C@@H](CCCC(=O)O)C(=O)O | 0.0 |
| Cl.NCC(O)C1CCCCCCC1 (centres unmarked) | 1.0 |
| COc1ccccc1N1CCN(CCN(C(=O)C2CCCCC2)c2ccccn2)CC1.O=C(O)/C=C\C(=O)O [WAY-100635 maleate] | 1.0 |
| CN(CCOc1ccc(C[C@H](Nc2ccccc2C(=O)c2ccccc2)C(=O)O)cc1)c1ccccn1 | 1.0 |

Here is the next item to consider.
Input line: Given CC(=O)[C@H]1CC[C@H]2[C@@H]3CC=C4C[C@@H](OS(=O)(=O)[O-])CC[C@]4(C)[C@H]3CC[C@]12C.[Na+] [Pregnenolone sulfate sodium] , state whether its mean is at least 1.
Output line: 1.0

* * *

- Target Or Test System: SARS-CoV-2 3CLpro (Severe acute respiratory syndrome coronavirus 2, UniProt P0DTD1)
- Experimental Details: biochemical
- Assay type: biochemical
- Design: unit not given here
- Test Conditions: sheet LOPAC_screen_w_protease; LOPAC1280 primary screen at 5 µM, with protease; replicate 2
Parameter: Replicate_2
# print the numeric value only

Completed entries (count: 5):
| Compound | Value |
| --- | --- |
| CCCn1c(=O)c2[nH]c(-c3ccc(OCC(=O)NCCN)cc3)nc2n(CCC)c1=O [Xanthine amine congener] | -1.91 |
| CS(=O)(=O)O.Cn1cc(C(F)(F)F)nc1-c1ccc(OCC(O)CNCCOc2ccc(O)c(C(N)=O)c2)cc1 (centres unmarked) [CGP 20712A methanesulfonate] | -0.5212 |
| CN1CCN(c2ccc3ccccc3n2)CC1.O=C(O)/C=C\C(=O)O.O=C(O)/C=C\C(=O)O [Quipazine, N-methyl-, dimaleate] | 0.1891 |
| CC[C@@H]1C(=O)OC[C@@H]1Cc1cncn1C.Cl [(+)-Pilocarpine hydrochloride] | -0.6778 |
| CC(C)(C)c1o[nH]c(=O)c1CC(N)C(=O)O (centres unmarked) [ATPA] | 1.005 |

Input line: Recorded Replicate_2 of N#Cc1cc2nc([O-])c([O-])nc2cc1[N+](=O)[O-].[Na+].[Na+] [CNQX disodium] , please.
Output line: -1.328

Input line: Entry under review: Nc1ccc(CCN2CCN(c3cccc(C(F)(F)F)c3)CC2)cc1 [PAPP] . Reported Replicate_2?
Output line: -1.96

Input line: Request the reported Replicate_2 associated with S=C([S-])OC1CC2CC1C1CCCC21.[K+] [D-609 potassium]
Output line: -1.0122

* * *

- Target Or Test System: SARS-CoV-2 3CLpro (Severe acute respiratory syndrome coronavirus 2, UniProt P0DTD1)
- Experimental Details: biochemical
- Type: biochemical
- Test Conditions: 4 h, sheet LOPAC_screen_w_protease; primary screen of LOPAC1280 at 5 µM with protease; replicate 1; read-out: Replicate_1
Parameter: inhibition at 5 µM (%)
Write it as a number; the unit % goes unstated.

Below: 4 compounds and their reported inhibition at 5 µM.
| Compound | Target Or Test System | Units Text | Value |
| --- | --- | --- | --- |
| CNC(=O)Oc1ccc2c(c1)[C@]1(C)CCN(C)[C@@H]1N2C [(-)-Physostigmine] | SARS-CoV-2 3CLpro (Severe acute respiratory syndrome coronavirus 2, UniProt P0DTD1) | % | 5.4 |
| CCCC(CCC)C(=O)O [Valproic acid sodium] | SARS-CoV-2 3CLpro (Severe acute respiratory syndrome coronavirus 2, UniProt P0DTD1) | % | 2.68 |
| CNC(=O)[C@H]1O[C@@H](n2cnc3c(NCc4cccc(I)c4)nc(Cl)nc32)[C@H](O)[C@@H]1O [Chloro-IB-MECA] | SARS-CoV-2 3CLpro (Severe acute respiratory syndrome coronavirus 2, UniProt P0DTD1) | % | 4.25 |
| O=C(C1CCCCC1)N1CC(=O)N2CCc3ccccc3C2C1 (stereo not shown) [Praziquantel] | SARS-CoV-2 3CLpro (Severe acute respiratory syndrome coronavirus 2, UniProt P0DTD1) | % | 3.31 |

Input line: Sample CC(C)N(CCC(C(N)=O)(c1ccccc1)c1ccccn1)C(C)C (stereo not shown) [Disopyramide] — what was its inhibition at 5 µM?
Output line: 4.56

Input line: What inhibition at 5 µM value was documented for this compound, CC1=NS(=O)(=O)c2cc(Cl)ccc2N1 [Diazoxide] ?
Output line: 4.67

* * *

- Target Or Test System: SARS-CoV-2 3CLpro (Severe acute respiratory syndrome coronavirus 2)
- Experimental Details: biochemical
- Type: biochemical
- Design: unit not given here
- Test Conditions: sheet LOPAC_screen_w_protease; LOPAC1280 primary screen at 5 µM, with protease; mean of the two replicates
Parameter: mean
Provide a numeric answer; units are not to be included.

Use the examples below as a reference point.
| Compound | mean |
| --- | --- |
| Cl.OC1CCCCC1N1CCC(c2ccccc2)CC1 (racemic) [(±)-Vesamicol hydrochloride] | 0.573 |
| O=C(O)/C=C\C(=O)O.O=C(O)/C=C\C(=O)O.c1ccc2nc(N3CCNCC3)ccc2c1 [Quipazine dimaleate] | 0.5004 |
| N[C@@H](Cn1ccc(=O)[nH]c1=O)C(=O)O [S(-)-Willardiine] | 0.8515 |
| [Cl-].[Li+] [Lithium Chloride] | 0.7152 |
| Cl.c1ccc(CN2CCC3(CCCc4ccccc43)CC2)cc1 [L-687,384 hydrochloride] | 0.6815 |

Input line: Using the record for C[C@H](Cc1ccccc1)Nc1ncnc2c1ncn2[C@@H]1O[C@H](CO)[C@@H](O)[C@H]1O [R(-)-N6-(2-Phenylisopropyl)adenosine] , report its mean.
Output line: 0.4967

Input line: // mean lookup, key: N#Cc1cc2nc([O-])c([O-])nc2cc1[N+](=O)[O-].[Na+].[Na+] [CNQX disodium]
Output line: 0.7558

Input line: Which measured mean value corresponds to Nc1ncnc2c1nc(Sc1ccc(Cl)cc1)n2C1OC2COP(=O)(O)OC2C1O (stereo in doubt) [8-(4-Chlorophenylthio)-cAMP sodium] ?
Output line: 0.5451

* * *

- Target Or Test System: SARS-CoV-2 3CLpro (Severe acute respiratory syndrome coronavirus 2)
- Experimental Details: biochemical
- Assay type: biochemical
Values of Replicate_2 (LOPAC_screen_w_protease) greater than or equal to 2 map to Fulfilled; values below map to Not fulfilled.

| Compound | Label Value |
| --- | --- |
| C[C@H](Cc1ccc2c(c1)OC(C(=O)[O-])(C(=O)[O-])O2)NC[C@H](O)c1cccc(Cl)c1.[Na+].[Na+] | Fulfilled |
| Brc1c(NC2=NCCN2)ccc2nccnc12 | Fulfilled |
| C#CCN[C@H](C)Cc1ccccc1.Cl [R-(-)-Desmethyldeprenyl hydrochloride] | Not fulfilled |
| CN1C2CCC1CC(OC(c1ccccc1)c1ccc(Cl)cc1)C2.Cl (stereo not shown) | Not fulfilled |
| O=C(O)CCCCCCC1C(=O)NC(=O)N1CCC(O)C1CCCCC1 (stereo not shown) [BW 245C] | Not fulfilled |
| Br.COc1ccc(-c2ccc(=N)n(CCCC(=O)O)n2)cc1 | Not fulfilled |

Consider the record given below.
Input line: Form field: Replicate_2 (LOPAC_screen_w_protease) at least 2? Entry: CN1CCCC1c1cccnc1.Cc1ccc(C(=O)OC(C(=O)O)C(OC(=O)c2ccc(C)cc2)C(=O)O)cc1 (stereo not drawn) [(+)-Nicotine (+)-di-p-toluoyl tartrate]
Output line: Fulfilled

Values compiled from paper PMC7587356.
